molecules and their reported IC50
- target_or_test_system: SARS2 protease (Severe acute respiratory syndrome coronavirus 2)
- method_description: SARS-CoV-2 protease inhibition assay (SARS2 FRET protease assay)
- Type: biochemical
- study_conditions: SARS-CoV-2 protease 25 nM, FRET, peptide substrate 1.3 μM, 30 minutes at 30° C., compounds 20 μM to 1.0 nM; read-out: IC50
quantity: IC50

>>> value_reported("O=C(N[C@@H](Cc1ccccc1)C(=O)N[C@@H](C[C@@H]1CCNC1=O)C(=O)C(=O)NC1CC1)OC1CCCC1Cc1cccc(Cl)c1 (some centres unmarked) [Compound C146]")
"> 20000 nM"
>>> value_reported("CCCC1CCC(OC(=O)NC(CC(C)C)C(=O)NC(CC2CC3(CCN(C(C)=O)CC3)NC2=O)C(O)P(=O)(OCC)OCC)CC1 (stereo in doubt) [Compound C91]")
"> 20000 nM"
>>> value_reported("CC(C)C[C@H](NC(=O)OCC(C)(C)c1cccc(Cl)c1)C(=O)N[C@H](CO)C[C@@H]1CCNC1=O [Compound C101]")
"> 20000 nM"
>>> value_reported("CC(C)C[C@H](NC(=O)O[C@H](c1cccc(F)c1)C(C)(C)c1cccc(Cl)c1)C(=O)N[C@H](C=O)C[C@@H]1CCNC1=O [Compound C269]")
"70 nM"
>>> value_reported("CC(C)C[C@H](NC(=O)OCc1cccc(Cl)c1)C(=O)NC(C=O)CC1CC2(CCCCC2)NC1=O (some centres unmarked) [Compound C66]")
"100 nM"
>>> value_reported("CC(C)C[C@H](NC(=O)OCC(C)(C)c1cccc(Cl)c1)C(=O)N[C@@H](C[C@@H]1CCNC1=O)C(=O)C(N)=O [Compound C90]")
"100 nM"
>>> value_reported("CC(C)(c1cccc(Cl)c1)C(OC(=O)N[C@@H](CC1CCCCC1)C(=O)N[C@@H](C[C@@H]1CCNC1=O)C(=O)C(N)=O)c1ccc2c(c1)CCC2 (some centres unmarked) [Compound C131]")
"15800 nM"
>>> value_reported("CCCC1CCC(OC(=O)N[C@@H](CC(C)C)C(=O)NC(C=O)CC2CC3(CCN(C(C)=O)CC3)NC2=O)CC1 (some centres unmarked) [Compound C77]")
"600 nM"
